The reported measurements were obtained from patent EP0876144B1.

assay_protocol: acute toxicity test (LD50) in mice
run_conditions: mouse, in vivo, ip; Maus
property_name: LD50

Qu. Returns the measured LD50 for the input molecule. Input: O=c1c2ccccc2[se]n1-c1ccccc1
Ans. 740 mg/kg

====

assay_protocol: acute toxicity test (LD50) in rats
run_conditions: rat, in vivo, po; Ratte
property_name: LD50

Qu. Returns the measured LD50 for the input molecule. Input: O=c1c2ccccc2[se]n1-c1ccccc1
Ans. > 6810 mg/kg
